TEST_DETAILS: Metabolic stability in mouse plasma after 2 hrs
Format: ADME, cell-free
CONDITIONS: read-out: Stability
READOUT_LABEL: remaining at 2 h (%)
Give bare numbers, in %.

A selection of reference data follows.
# STRUCTURE_STRING, remaining at 2 h (%)
rows = [
    ("COc1cc(O)c2c(c1)/C=C/C[C@H](O)[C@H](O)C(=O)/C=C\\[C@H]1CCC[C@H]1OC2=O", 34),
    ("COc1cc(O)c2c(c1)/C=C/C[C@H](O)[C@H](O)C(=O)/C=C\\[C@H](OC)[C@H](C)OC2=O", 25),
    ("COc1cc(O)c2c(c1)/C=C/C[C@H](O)[C@H](O)C(=O)/C=C\\C[C@H](C)OC2=O", 2),
]

Here is another compound to look at.
[in] Consider the compound `COc1cc(O)c2c(c1)/C=C/C[C@H](O)[C@H](O)C(=O)/C=C\[C@@H]1CCC[C@@H]1OC2=O` and give its measured remaining at 2 h.
[out] 77

---

System: Mus musculus
TEST_DETAILS: Normalised AUC in BALB/c mouse at 3 mg/kg, iv
Format: ADME, organism-based
Set-up: dose 3 mg/kg, route intravenous
CONDITIONS: in vivo
READOUT_LABEL: AUC/dose

Take each entry in turn and give its AUC/dose.
1. COc1cc(O)c2c(c1)/C=C/C[C@H](O)[C@H](O)C(=O)/C=C\C[C@H](C)OC2=O
2. COc1cc(O)c2c(c1)/C=C/C[C@H](O)[C@H](O)C(=O)/C=C\[C@@H](C)[C@H](C)OC2=O

[out]
1. 23.8 ng·h/mL/(mg/kg)
2. 181 ng·h/mL/(mg/kg)

---

TEST_DETAILS: Clearance in BALB/c mouse at 3 mg/kg, iv
Format: ADME, organism-based
Set-up: dose 3 mg/kg, route intravenous
CONDITIONS: in vivo
READOUT_LABEL: clearance (mL/min/kg)
Give bare numbers, in mL/min/kg.

# STRUCTURE_STRING, MEAS_VALUE
data = [
    ("COc1cc(O)c2c(c1)/C=C/C[C@H](O)[C@H](O)C(=O)/C=C\\C[C@H](C)OC2=O", 710),
]

[in] Consider the molecule `COc1cc(O)c2c(c1)/C=C/C[C@H](O)[C@H](O)C(=O)/C=C\[C@@H](C)[C@H](C)OC2=O` and give its measured clearance.
[out] 91.8

---

Give Vd for every item shown.
TEST_DETAILS: Volume of distribution at steady state in BALB/c mouse at 3 mg/kg, iv
Assay type: ADME, organism-based
Set-up: dose 3 mg/kg, route intravenous
CONDITIONS: in vivo, read-out: Vdss
Give bare numbers, in L/kg.

# STRUCTURE_STRING, ENDPOINT_UNIT, MEAS_VALUE
rows = [
    ("COc1cc(O)c2c(c1)/C=C/C[C@H](O)[C@H](O)C(=O)/C=C\\[C@@H](C)[C@H](C)OC2=O", "L/kg", 1.69),
]

Here is another molecule to look at.
[in] Consider the molecule `COc1cc(O)c2c(c1)/C=C/C[C@H](O)[C@H](O)C(=O)/C=C\C[C@H](C)OC2=O` and give its measured Vd.
[out] 3.3
